Experiment: Inhibition of tetrabenazine induced depression of exploratory behavior in mice
Format: in vivo
Conditions: 6.25 mg/kg, intraperitoneally or orally, 1 h before tetrabenazine 30 mg/kg
metric: Number Responded/Number Treated

Sample records with Number Responded/Number Treated:
[[record]]
molecule = "CCN1c2ccccc2N=C(N2CCN(C)CC2)c2cscc21"
observed_measurement = "10/30"

[[record]]
molecule = "CCN1CCN(C2=Nc3ccccc3N(C)c3cscc32)CC1"
observed_measurement = "10/30"

[[record]]
molecule = "CN1c2ccccc2N=C(N2CCN(CCO)CC2)c2cscc21"
observed_measurement = "9/20"

[[record]]
molecule = "CN1c2ccccc2N=C(N2CCNCC2)c2cscc21"
observed_measurement = "9/20"


Which Number Responded/Number Treated value is on record for `CN1CCN(C2=Nc3ccccc3N(C)c3cscc32)CC1` ? 6/10

Which measured Number Responded/Number Treated value corresponds to CN(C)CCCN1c2ccccc2CCc2ccccc21 [Imipramine, reference compound] ? 7/10
